test system: HT29 colon; test: NCI tumour cell line growth inhibition, 48 h
READOUT_KIND: TGI (µM)
Write it as a number; the unit µM goes unstated.

O=C(CCc1ccccc1)CC1OC(=O)C(Cl)=C1Cl (stereo not given) = 58.2

Turning to the following molecule.
Problem: What measured TGI is associated with CC1(C)C(=O)/C=C\C(=O)C(C)(C)C(=O)/C=C\C(=O)C(C)(C)C2=CC=C(O2)C(C)(C)C(=O)/C=C\C1=O on HT29 colon?
Result: 8.45

---

GI50: recorded values
test system: NCI-H226 lung; experiment: NCI tumour cell line growth inhibition, 48 h

Use these answered entries as a reference point.
CN(C)c1ccc2[nH]c3c(C(N)=O)cc(=O)c(=O)c=3oc2c1 = 4.74 µM
CCC(=O)Nc1nnc(Cc2ccc(OC)c(OC)c2)s1 = > 100 µM

Turning to the following compound.
Problem: Would you mind telling me what GI50 value was observed for O=C1/C(=C/c2ccc(C(F)(F)F)cc2)COc2ccc(O)c(O)c21 ?
Result: 1.59 µM
